- MEASUREMENT_TARGET: BTK enzyme (recombinant full-length BTK, hBTK) (Homo sapiens, UniProt Q06187)
- Construct: recombinant protein from baculovirus-transfected Sf9 cells: full-length BTK, 6HIS-tag cleaved; 6HIS (cleaved yes); made in house; host or cells: baculovirus-transfected Sf9 cells
- Sequence (Q06187 whole entry): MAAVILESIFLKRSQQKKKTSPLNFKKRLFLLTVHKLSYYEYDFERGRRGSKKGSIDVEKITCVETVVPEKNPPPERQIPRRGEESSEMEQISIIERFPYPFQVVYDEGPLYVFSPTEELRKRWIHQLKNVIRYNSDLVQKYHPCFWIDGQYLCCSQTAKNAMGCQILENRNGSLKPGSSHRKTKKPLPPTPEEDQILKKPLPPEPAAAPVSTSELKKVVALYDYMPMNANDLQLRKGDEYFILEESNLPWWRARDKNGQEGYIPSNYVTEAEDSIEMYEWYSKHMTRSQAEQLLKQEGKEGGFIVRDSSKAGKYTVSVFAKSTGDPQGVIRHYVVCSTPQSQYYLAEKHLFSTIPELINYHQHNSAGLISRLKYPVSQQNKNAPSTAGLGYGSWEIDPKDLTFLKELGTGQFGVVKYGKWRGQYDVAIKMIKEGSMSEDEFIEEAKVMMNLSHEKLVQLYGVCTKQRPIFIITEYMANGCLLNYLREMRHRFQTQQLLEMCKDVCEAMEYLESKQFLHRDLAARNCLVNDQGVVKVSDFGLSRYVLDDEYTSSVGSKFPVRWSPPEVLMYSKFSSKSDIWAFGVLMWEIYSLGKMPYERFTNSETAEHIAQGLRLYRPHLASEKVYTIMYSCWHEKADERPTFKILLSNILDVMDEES
- ASSAY_PROCEDURE: BTK enzyme activity assay, LANCE TR-FRET
- Type: biochemical
- EXPERIMENTAL_CONTEXT: 50 pM hBTK, 2 μM biotin-A5-peptide, 25 μM ATP; 60 min compound & enzyme incubation; read-out: IC50 BTK activity value
# key: entry, value: IC50

CHEMICAL_STRING	IC50
Nc1nccn2c([C@@H]3CC[C@H]4CCC(=O)N4C3)nc(-c3ccc(C(=O)Nc4cc(C(F)(F)F)ccn4)c(Cl)c3)c12	0.52 nM
Cc1cnc(NC(=O)c2ccc(-c3nc([C@@H]4CC[C@H]5CCC(=O)N5C4)n4c(Cl)cnc(N)c34)cc2)s1	0.81 nM
CC(F)(F)Oc1cc(C(=O)Nc2cc(C(F)(F)F)ccn2)ccc1-c1nc([C@@H]2CC[C@H]3CCC(=O)N3C2)n2c(Cl)cnc(N)c12	6.6 nM
